Biological target: T1, dog activated Protein C (dog, UniProt Q28278 43-456)
T1 sequence (looked up): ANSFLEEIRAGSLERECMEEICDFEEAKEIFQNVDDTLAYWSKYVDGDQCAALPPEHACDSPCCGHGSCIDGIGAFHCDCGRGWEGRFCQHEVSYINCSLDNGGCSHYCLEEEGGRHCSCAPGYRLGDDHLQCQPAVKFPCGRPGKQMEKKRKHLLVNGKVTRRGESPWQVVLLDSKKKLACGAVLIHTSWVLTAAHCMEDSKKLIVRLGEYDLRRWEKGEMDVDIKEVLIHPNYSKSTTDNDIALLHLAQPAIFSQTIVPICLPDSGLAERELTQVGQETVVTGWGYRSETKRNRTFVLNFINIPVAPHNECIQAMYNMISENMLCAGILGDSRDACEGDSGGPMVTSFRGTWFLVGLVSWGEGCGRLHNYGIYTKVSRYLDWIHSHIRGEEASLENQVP
Assay: cell-based or functional assay
OBSERVABLE: Anti-aPC IC50 (nM), Amidolytic activity

BINDER	OBSERVABLE	REPORTED MEASUREMENT
C25K23 IgG1 (antibody, V domains shown, the claims call them variable regions; also called C25K23 hIgG; C25K23 hIgG1) VH: EVQLLESGGGLVQPGGSLRLSCAASGFTFSSYWMSWVRQAPGKGLEWVSGVSWNGSRTHYADSVKGRFTISRDNSKNTLYLQMNSLRAEDTAVYYCALTGRSGWMRFPNWFDPWGQGTLVTVSS VL: QSVLTQPPSASGTPGQRVTISCTGSSSNIGAAYDVHWYQQLPGTAPKLLIYGNNKRPSGVPDRFSGSKSGTSASLAISGLRSEDEADYYCQSYDSSLSGSVFGGGTKLTVLG	Anti-aPC IC50 (nM), Amidolytic activity	692
